- Tested on: A498 renal
- Protocol Text: NCI tumour cell line growth inhibition, 48 h
Measured Metric: TGI

Requested field: TGI. Item: N#CCCN(CCC#N)c1ccc(/C=C2\N=C(c3ccccc3)N(c3ccc(C(=O)O)cc3)C2=O)cc1
> 100 µM

Would you mind doing COc1ccc(-c2nc(-c3nc4cc(Cl)c(F)cc4[nH]3)c3ccccn23)cc1 as well?
> 100 µM

Would you mind doing O=C(/C=C1\Sc2ccccc2N=C1CC(=O)c1ccccc1)c1ccccc1 as well?
> 100 µM

----------
- Test system: LOX IMVI melanoma
- Protocol Text: NCI tumour cell line growth inhibition, 48 h
Measured Metric: TGI (µM)
Answer in µM, number only, no unit symbol.

Requested field: TGI. Item: CCOC(=O)C(=CNc1ccc(N(C2=NCC(C)S2)c2ccc(F)c(Cl)c2)cc1)C(=O)OCC (centres undefined)
34.5

Would you mind doing CC(C)(C)NCC(O)COc1c(Br)c(Br)c(Br)c2c1OC(C)(C)C2 (centres undefined) as well?
3.1

Would you mind doing COC(=O)c1c(CC(Cc2ccc3c(c2)CCCC3)C(=O)O)ccc2c1CCCC2 (centres undefined) as well?
31.4

Would you mind doing O=C(Nc1cccc(F)c1)c1cc2ccc(O)cc2oc1=Nc1cccc(F)c1 as well?
9.35

----------
- System: SNB-19 CNS
- Protocol Text: NCI tumour cell line growth inhibition, 48 h
Assign TGI to each entry below.

Requested field: TGI. Item: CCOc1cccc2c1N[S@@](=O)S2
> 100 µM

Would you mind doing COc1ccc2c(O)c(S(=O)(=O)c3ccc(C)cc3)c(=O)oc2c1OC as well?
> 100 µM

Would you mind doing CN/N=C(/c1nc2ccc([N+](=O)[O-])cc2[nH]c1=O)C(O)c1ccc(C(O)/C(=N\NC)c2nc3ccc([N+](=O)[O-])cc3[nH]c2=O)cc1 (stereo not drawn) as well?
> 100 µM

----------
Assign TGI to each entry below.
- Test system: HS 578T breast
- Protocol Text: NCI tumour cell line growth inhibition, 48 h
Answer in µM, number only, no unit symbol.

Requested field: TGI. Item: COc1ccc(-c2c(C#N)c(N)nc(N3CCOCC3)c2C#N)cc1
64.4

Would you mind doing CN(Cc1ccc(F)cc1)c1ccc(CO)c(Cl)c1 as well?
97.3

Would you mind doing COc1cccc(CNc2ncnc3c2ncn3C2OC(CO)C(O)C2O)c1O (configuration not stated) as well?
0.577

Would you mind doing Nc1nc(N)c2cc(Sc3ccc4ccccc4c3)ccc2n1 as well?
9.17

Would you mind doing Cc1cc(CCl)c(C)cc1CCl as well?
8.21

----------
Assign TGI to each entry below.
- Tested on: KM12 colon
- Protocol Text: NCI tumour cell line growth inhibition, 48 h

Form field - read-out: TGI; system: KM12 colon; submitted item: c1ccc2c(c1)c1ccccc1n2Cn1c2ccccc2c2ccccc21
> 100 µM

Would you mind doing CC1CC2(S(=O)(=O)c3ccccc3)ON1CC2S(=O)(=O)c1ccccc1 (stereo unspecified) as well?
> 100 µM

Would you mind doing COc1cccc(CNc2ncnc3c2ncn3C2OC(CO)C(O)C2O)c1O (stereo unspecified) as well?
> 100 µM

Would you mind doing CCCCc1ccc(-n2sc3ncc(-c4ccccc4)cc3c2=O)cc1 as well?
> 100 µM

Would you mind doing CN(C)C(=S)/N=c1\ssc(=S)n1C as well?
> 100 µM

Would you mind doing COc1cc(-c2ccc(N=Nc3ccc4c(S(=O)(=O)O)cc(S(=O)(=O)O)c(N)c4c3O)c(OC)c2)ccc1N=Nc1ccc2c(S(=O)(=O)O)cc(S(=O)(=O)O)c(N)c2c1O as well?
> 100 µM

----------
- System: DU-145 prostate
- Protocol Text: NCI tumour cell line growth inhibition, 48 h
Measured Metric: TGI

Requested field: TGI. Item: O=C(Nc1cccc(F)c1)c1cc2ccc(O)cc2oc1=Nc1cccc(F)c1
> 100 µM

Would you mind doing C[C@H]1C2Cc3cc(O)ccc3[C@@]1(C)CCN2CCc1ccc(N)cc1 as well?
> 100 µM

Would you mind doing CC(C)=NOC(=O)CNC(=O)C(Cc1ccccc1)NC(=O)C(C)NC(=O)OC(C)(C)C (stereo not given) as well?
> 100 µM

Would you mind doing N#CCCN(CCC#N)c1ccc(/C=C2\N=C(c3ccccc3)N(c3ccc(C(=O)O)cc3)C2=O)cc1 as well?
> 100 µM

Would you mind doing FC(F)(F)c1ccc(-c2nn3ncccc3c2-c2ccnc(Nc3ccc4c(c3)OCCO4)n2)cc1 as well?
> 25 µM

----------
Assign log10(TGI) to each entry below.
- System: RXF 393 renal
- Protocol Text: NCI tumour cell line growth inhibition, 48 h
The base-10 logarithm of TGI, taken with TGI in µM, is what appears here.

Form field - read-out: log10(TGI); system: RXF 393 renal; submitted item: COc1cccc(-c2cc(=O)c3cc4c(cc3[nH]2)OCO4)c1
-0.32

Would you mind doing Cc1ccc(-c2c(-c3ccccc3)[nH]c(C)c2C(=O)ONC(=O)c2ccccc2)cc1 as well?
0.77

Would you mind doing CCCN(CCC)c1ccc(C=O)c(Cl)c1 as well?
1.53

Would you mind doing Cc1cc(CCl)c(C)cc1CCl as well?
0.94

Would you mind doing COc1ccc(C(=O)c2sc3nc(-c4ccccc4OC)ccc3c2N)cc1OC as well?
1.85

Would you mind doing COc1ccc(Nc2nc(Nc3cc(C)[nH]n3)c3cc(OC)c(OC)cc3n2)cc1 as well?
0.45

Would you mind doing O=c1cc(-c2ccccc2)[nH]c2cc(F)cc(F)c12 as well?
1.91

Would you mind doing CCCCCCNCCCNc1c2cc(OC)ccc2nc2cccc([N+](=O)[O-])c12 as well?
-0.95

Would you mind doing COc1ccc(C2=[S+]C(c3ccccc3)(c3ccccc3)c3ccccc32)cc1 as well?
1.41

----------
- Test system: SW-620 colon
- Protocol Text: NCI tumour cell line growth inhibition, 48 h
Assign TGI to each entry below.

Requested field: TGI. Item: COc1ccc(-c2cnnn2-c2nonc2-n2cccc2)cc1OC
> 100 µM

Would you mind doing CC[C@@H](CCCCC1CC[C@H]2CC(=O)C[C@@H]12)OC (stereo partly drawn) as well?
> 100 µM

Would you mind doing CC1(C)OCC(C2OC3OC(C)(C)OC3C2c2ccccc2)O1 (stereo not drawn) as well?
> 100 µM

Would you mind doing CC1(C)COC2C(N(Cc3ccccc3)Cc3ccccc3)C(=O)N21 (stereo not drawn) as well?
> 100 µM

Would you mind doing Cc1cc(N/N=C/c2nc(-c3ccc(Cl)cc3)oc2C)c2cc(Br)ccc2n1 as well?
4.23 µM

Would you mind doing CN(C)C(=S)/N=c1\ssc(=S)n1C as well?
> 100 µM

Would you mind doing CCc1ccc2[nH]c(O)c(C3=Nc4ccccc4C3=O)c2c1 as well?
> 100 µM

Would you mind doing Oc1ccc(/C=C/c2cccc(/C=C/c3ccc(O)c(O)c3)n2)cc1O as well?
> 100 µM

Would you mind doing Nc1nccc(NCC2(CO)CC(OCc3ccccc3)C2)n1 (stereo not drawn) as well?
> 100 µM

Would you mind doing O=[N+]([O-])c1ccc(C2ON=C(c3ccccc3)N2C23CC4CC(CC(C4)C2)C3)cc1 (stereo not drawn) as well?
> 10 µM

Would you mind doing Nc1[nH]c(=O)nc2snnc12 as well?
> 100 µM

Would you mind doing CCOc1ccc(N=C(NC(=O)c2ccccc2)SC)cc1 as well?
> 100 µM

Would you mind doing N#Cc1c2ccc([N+](=O)[O-])cc2c(=O)n2c1[nH]c1ccc(C(F)(F)F)cc12 as well?
> 100 µM

----------
- Test system: MDA-MB-231 breast
- Protocol Text: NCI tumour cell line growth inhibition, 48 h
Assign TGI to each entry below.

Form field - read-out: TGI; system: MDA-MB-231 breast; submitted item: Nc1c(C(=O)c2cccc(C#CCN3CCCCC3)c2)cnn1-c1ccc(F)cc1
> 25 µM

Would you mind doing O=c1[nH]c(SCc2cccc([N+](=O)[O-])c2)nc2nc[nH]c12 as well?
> 100 µM

Would you mind doing COc1ccc(-c2c(-c3ccccc3)c(C)c3ccccn23)cc1 as well?
> 100 µM

Would you mind doing COC(=O)C1Cc2c(OC)ccc(OC)c2C(O)C1C(=O)OC (centres undefined) as well?
> 100 µM

----------
Assign TGI to each entry below.
- System: OVCAR-5 ovarian
- Protocol Text: NCI tumour cell line growth inhibition, 48 h

Requested field: TGI. Item: O=c1[nH]nc(-c2ccccc2)n1/N=C/c1ccccc1O
> 100 µM

Would you mind doing Cc1ccc2nc3n[nH]c(N)c3nc2c1 as well?
> 100 µM

Would you mind doing Nc1nc2ccc(Sc3ccc4nc(N)[nH]c(=O)c4c3)cc2c(=O)[nH]1 as well?
> 100 µM

Would you mind doing CCOc1ccc(N=C(NC(=O)c2ccccc2)SC)cc1 as well?
> 100 µM

Would you mind doing Nc1[nH]c(=O)nc2snnc12 as well?
> 100 µM

Would you mind doing Nc1ccc(-c2nc3ccc(F)cc3s2)cc1Cl as well?
> 100 µM
